condition_summary: in n-butanol, 273.35 K
property_name: solubility (mole fraction)

                       chemical_structure  data_value
0  O=S(=O)(c1ccccc1)N(F)S(=O)(=O)c1ccccc1     0.00053

###

condition_summary: in toluene, 302.65 K
property_name: solubility (mole fraction)

>>> print(df.to_string())
                       chemical_structure  data_value
0  O=S(=O)(c1ccccc1)N(F)S(=O)(=O)c1ccccc1      0.0429

###

condition_summary: in isopentanol, 288.35 K
property_name: solubility (mole fraction)

                       chemical_structure               property_name  data_value
0  O=S(=O)(c1ccccc1)N(F)S(=O)(=O)c1ccccc1  solubility (mole fraction)    0.000812
